Cited source for all entries: patent US12538924B2

Tested on: Diabrotica Balteata (Corn Root Worm)
Assay: Diabrotica balteata (Corn Root Worm), sprayed maize sprouts
Assay type: in vivo
Conditions: 96 h, application rate of 200 ppm, L2 larvae on sprayed maize sprouts, 4 days after infestation, read-out: effect in at least one of the two categories (mortality or growth inhibition)
TEST_READOUT: percent effect (mortality or growth inhibition) at 200 ppm

Incoming: Return percent effect (mortality or growth inhibition) at 200 ppm (reported value) for this molecule: CCS(=O)(=O)c1cc(C2CC2)cnc1N1Cc2cnc(C(F)(F)F)cc2C1=O [Compound P14]
Outgoing: ≥ 80%

Incoming: Return percent effect (mortality or growth inhibition) at 200 ppm (reported value) for this molecule: CCS(=O)(=O)c1ccc(-n2cncn2)nc1N1Cc2cnc(C(F)(F)F)cc2C1=O [Compound P5]
Outgoing: ≥ 80%

Incoming: Return percent effect (mortality or growth inhibition) at 200 ppm (reported value) for this molecule: CCS(=O)(=O)c1cccnc1N1Cc2cnc(C(F)(F)F)cc2C1=O [Compound P1]
Outgoing: ≥ 80%

Incoming: Return percent effect (mortality or growth inhibition) at 200 ppm (reported value) for this molecule: N#CC1(c2cnc(N3Cc4cnc(C(F)(F)F)cc4C3=O)c(S(=O)(=O)CC3CC3)c2)CC1 [Compound P28]
Outgoing: ≥ 80%

Incoming: Return percent effect (mortality or growth inhibition) at 200 ppm (reported value) for this molecule: CCS(=O)(=O)c1cc(C2(C#N)CC2)cnc1N1Cc2ccc(C(F)(F)F)cc2C1=O [Compound P26]
Outgoing: ≥ 80%

Incoming: Return percent effect (mortality or growth inhibition) at 200 ppm (reported value) for this molecule: CCC(=O)N(C)c1ccc(S(=O)(=O)CC)c(N2Cc3cnc(C(F)(F)F)cc3C2=O)n1 [Compound P19]
Outgoing: ≥ 80%

Incoming: Return percent effect (mortality or growth inhibition) at 200 ppm (reported value) for this molecule: CCS(=O)(=O)c1cc(C2(C#N)CC2)cnc1N1Cc2ncc(C(F)(F)F)cc2C1=O [Compound P11]
Outgoing: ≥ 80%

Incoming: Return percent effect (mortality or growth inhibition) at 200 ppm (reported value) for this molecule: CCS(=O)(=O)c1cc(C(C)(C)C#N)cnc1N1Cc2cnc(C(F)(F)F)cc2C1=O [Compound P2]
Outgoing: ≥ 80%
